details: 303.15 K; 100 kPa; Liquid; Vibrating tube method
experimentalReadout: mass density (kg/m3)

compound=CC1CCCCC1 unittag=kg/m3 recordedmeasurement=760.71
compound="CCCCCCCCCC(=O)OC [methyl decanoate]" unittag=kg/m3 recordedmeasurement=864.06
compound="CCCCCCCCCCCCCC(=O)OC [methyl tetradecanoate]" unittag=kg/m3 recordedmeasurement=859.54
compound="CCCCCCCCCCCC(=O)OC [methyl dodecanoate]" unittag=kg/m3 recordedmeasurement=861.46

----------
details: 323.15 K; 100 kPa; Liquid; Falling or rolling sphere viscometry
Quick reference for viscosity among some molecules
experimentalReadout: viscosity (mPa·s)

molecule="CCCCCCCCCCCC(=O)OC [methyl dodecanoate]" unittag=mPa·s recordedmeasurement=1.729
molecule="CCCCCCCCCCCCCC(=O)OC [methyl tetradecanoate]" unittag=mPa·s recordedmeasurement=2.308
molecule=CC1CCCCC1 unittag=mPa·s recordedmeasurement=0.505
molecule="CCCCCCCCCC(=O)OC [methyl decanoate]" unittag=mPa·s recordedmeasurement=1.245
